Cited source: patent US20180016327A1

Molecular target: T1, human C5 (human, UniProt P01031 19-673; P01031 678-1676, Beta and alpha chains are disulfide-linked and the protein is glycosylated.)
T1 construct: Either in-house recombinant C5 or plasma derived C5 (CALBIOCHEM) was used; also called recombinant human C5; plasma derived human C5
Experiment: Biacore, captured antibody, pH 7.4, 37 C;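 also: biacore binding response of anti-C5 antibody light chain variants captured on chip with human C5 injected, ACES running buffer containing 1.2 mM CaCl₂, parent light chain antibody set to 100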
Parameter: % binding (parent = 100)

Take a look at these entries with their results.
1) CFP0015 15L 92P (antibody, V domains shown) VH: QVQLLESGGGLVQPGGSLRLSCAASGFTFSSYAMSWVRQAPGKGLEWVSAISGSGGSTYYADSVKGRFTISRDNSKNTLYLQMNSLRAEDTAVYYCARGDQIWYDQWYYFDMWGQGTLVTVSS VL: DIQMTQSPSSLSASVGDRVTITCRASQSIEDDLAWYQQKPGKAPKLLIYEASNLQSGVPSRFSGSGSGTDFTLTISSLQPEDFATYYCQQYPSSPLTFGQGTKVEIK :: 21.7%
2) CFP0015 15L 93G (antibody, V domains shown) VH: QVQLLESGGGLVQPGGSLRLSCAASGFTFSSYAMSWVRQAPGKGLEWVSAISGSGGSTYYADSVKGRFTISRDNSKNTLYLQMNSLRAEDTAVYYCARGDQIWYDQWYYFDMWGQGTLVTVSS VL: DIQMTQSPSSLSASVGDRVTITCRASQSIEDDLAWYQQKPGKAPKLLIYEASNLQSGVPSRFSGSGSGTDFTLTISSLQPEDFATYYCQQYDGSPLTFGQGTKVEIK :: 78.6%

Note: attention shifts to another entry.
stdin: What measured % binding (parent = 100) goes with CFP0018 18L 53N (antibody, V domains shown) VH: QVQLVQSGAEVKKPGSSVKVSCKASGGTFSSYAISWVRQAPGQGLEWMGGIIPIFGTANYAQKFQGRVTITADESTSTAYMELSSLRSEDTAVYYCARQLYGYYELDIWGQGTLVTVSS VL: DIQMTQSPSSLSASVGDRVTITCRASQSISDDLAWYQQKPGKAPKLLIYEASNLQSGVPSRFSGSGSGTDFTLTISSLQPEDFATYYCQQYNSYPLTFGQGTKVEIK ?
stdout: 91.2%
